Recorded values, source the supplement of paper PMC7125110.

Would you kindly list log10 of kcat for each of these variants?
B1: glmS ribozyme (parent)
chain: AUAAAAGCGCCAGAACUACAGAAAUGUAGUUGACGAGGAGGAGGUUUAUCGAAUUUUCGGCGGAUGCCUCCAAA

Variants of: B1
Assay: kcat; higher = faster cleavage; RNA array
Settings: with glucosamine-6-phosphate
Fewer inactive variants are shown than the library holds.
// do not treat as linear: log10 of kcat, unit s⁻¹

# input Recorded log10 of kcat for C11G A12C , please?
# output -3.81

# input What log10 of kcat value was documented for this variant, A12U A39C A52G ?
# output -3.76

# input Data request, read-out log10 of kcat, for G43A U45G C58G
# output -4.55

# input Fill in the blank: the reported log10 of kcat of A36U U69C is ____.
# output -4.64

# input Quick one: log10 of kcat for A48U G66A ?
# output -3.33

# input Given the variant C58U U69C , what is its reported log10 of kcat?
# output -4.55

# input // lookup log10 of kcat for C68G U69A
# output -4.80

# input For U45A U46G , what is its reported log10 of kcat?
# output -1.23

# input # query: log10 of kcat of entry C16G C50G
# output -4.32

# input Which log10 of kcat is listed for A14U U55G ?
# output -2.07

# input State the recorded log10 of kcat for this entry: C16G G32C
# output -3.91

# input Fill blank: measured log10 of kcat of the variant A6C C16U is ____.
# output -3.68

# input # get_value(readout='log10 of kcat', item= A12U G51A )
# output -4.98

# input Using the record for A15U A53U , report its log10 of kcat.
# output -2.27

# input So what's the measured log10 of kcat for this one? G29U G66A
# output -2.47

# input Fill in the blank: the reported log10 of kcat of C11A A53G is ____.
# output -3.69

# input Which value of log10 of kcat has been reported for U54A G66U in the records?
# output -2.70

# input So what's the measured log10 of kcat for this one? U45A U49G
# output -2.79

# input Look up log10 of kcat for this variant: A33U G40C
# output -4.29

# input Any idea what log10 of kcat was measured for A39U C67A ?
# output -2.01

# input Bench note: what log10 of kcat did U55G U57C show?
# output -3.60

# input Could you tell me which log10 of kcat is on file for G59U C68U ?
# output -4.82

# input Give the measured log10 of kcat of A12G U69C .
# output -3.05

# input Request the reported log10 of kcat associated with C16G C67U
# output -3.17

# input Which log10 of kcat reading was recorded for the variant U56G U69C C70A ?
# output -4.22

# input State the recorded log10 of kcat for this entry: G32A U49G
# output -4.22

# input Field request: log10 of kcat | item: A52U U54G
# output -3.56

# input Report log10 of kcat for A12G C16U C34G C67G please.
# output -4.80

# input Query: log10 of kcat; subject: C50U U54G
# output -4.59

# input Return reported log10 of kcat; argument: A39C U56A
# output -2.48

# input Recorded log10 of kcat for A6G C67U , please?
# output -3.95

# input Tell me the measured log10 of kcat of C16U A52U , please.
# output -3.39

# input What does the record list as log10 of kcat for C16G U69G ?
# output -4.30

# input Suppose we examine the variant A53U A64G ; what log10 of kcat value has been reported?
# output -1.63

# input Reported log10 of kcat for G40A G59U : what is it?
# output -4.84

# input Which log10 of kcat value belongs to U45G A52U ?
# output -3.38
